The values you see were collected from paper PMC7848789.

TARGET ENTITY: HDAC1-NanoLuc fusion protein (Homo sapiens)
TEST: HDAC1 NanoBRET target engagement assay in HEK293T cells
pIC50: −log10 of the molar value.
MEASUREMENT TYPE: pIC50

INSERT INTO results (compound, measurement_type, recorded_value) VALUES
  ('N=C(N)c1ccc2cc(OC(=O)c3ccc(N=C(N)N)cc3)ccc2c1 [Nafamostat]', 'pIC50', 4.93),
  ('CN(C)C(=O)COC(=O)Cc1ccc(OC(=O)c2ccc(NC(=N)N)cc2)cc1 [Camostat]', 'pIC50', 5.09),
  ('O=C(Nc1cccc(Cl)c1)Nc1ncc(CCNc2ncnc3ccsc23)s1 [SNS-314]', 'pIC50', 6.26);

###

TARGET ENTITY: Recombinant human HDAC1 enzyme (Homo sapiens)
TEST: HDAC-Glo I/II enzymatic assay
Format: biochemical
TEST SETTINGS: qHTS, 11 concentrations; active = CRC class 1 and 2 and AUC>100
Where a SMILES comes first, the peptide text is derived from it.
MEASUREMENT TYPE: Activity outcome in HDAC1 enzymatic HDAC-Glo I/II assay

Please review the entries below; each comes with its answer.
INSERT INTO measurements (molecule, recorded_value) VALUES
  ('O=C(CCCCCCSc1ccc2ccccc2c1)NO', 'inactive'),
  ('CC(=O)Nc1ccc(C(=O)Nc2ccccc2N)cc1', 'active'),
  ('CN1CCc2c(c3ccccc3n2Cc2ccc(C(=O)NO)cc2)C1', 'weak activity'),
  ('C=C1CN(Cc2ccc(C(=O)Nc3ccccc3N)cc2)C(=O)c2ccccc21', 'active'),
  ('NC(=O)c1cccc2[nH]c(-c3ccc([C@@H]4CCCN4)cc3F)nc12', 'active');

QUERY: Can you look up Activity outcome in HDAC1 enzymatic HDAC-Glo I/II assay on Recombinant human HDAC1 enzyme (Homo sapiens) for O=C(CCCCCCC(=O)Nc1ccc([C@H]2O[C@@H](CSc3nc(-c4ccccc4)c(-c4ccccc4)o3)C[C@@H](c3ccc(CO)cc3)O2)cc1)NO ?
RESULT: weak activity

QUERY: Can you look up Activity outcome in HDAC1 enzymatic HDAC-Glo I/II assay on Recombinant human HDAC1 enzyme (Homo sapiens) for CCCCNNC(=O)c1ccc(Br)cc1 ?
RESULT: weak activity

QUERY: Can you look up Activity outcome in HDAC1 enzymatic HDAC-Glo I/II assay on Recombinant human HDAC1 enzyme (Homo sapiens) for COc1ccc(-c2nc(N3CCOCC3)c3sc(CN(C)c4ncc(C(=O)NO)cn4)cc3n2)cn1 ?
RESULT: most potent

QUERY: Can you look up Activity outcome in HDAC1 enzymatic HDAC-Glo I/II assay on Recombinant human HDAC1 enzyme (Homo sapiens) for CC(C)C(=O)SCCCCCCC(=O)Nc1nc(-c2ccccc2)cs1 ?
RESULT: inactive

QUERY: Can you look up Activity outcome in HDAC1 enzymatic HDAC-Glo I/II assay on Recombinant human HDAC1 enzyme (Homo sapiens) for O=C(CCCCC[C@@H]1NC(=O)[C@H]2CCCCN2C(=O)[C@H](Cc2ccccc2)NC(=O)[C@H](Cc2ccccc2)NC1=O)C1CO1 (stereo partly drawn) [Trapoxin A] (HELM PEPTIDE1{F.F.[O=C([C@H]1CCCCN1[*:1])[*:2]].[O=C(CCCCC[C@H](N[*:1])C(=O)[*:2])C1CO1]}$PEPTIDE1,PEPTIDE1,1:R1-4:R2$$$V2.0) ?
RESULT: most potent

QUERY: Can you look up Activity outcome in HDAC1 enzymatic HDAC-Glo I/II assay on Recombinant human HDAC1 enzyme (Homo sapiens) for Nc1ccccc1NC(=O)c1ccc(CNC(=O)OCc2cccnc2)cc1 ?
RESULT: active

QUERY: Can you look up Activity outcome in HDAC1 enzymatic HDAC-Glo I/II assay on Recombinant human HDAC1 enzyme (Homo sapiens) for Cc1ccc(NC(=O)CCCCCC(=O)Nc2ccccc2N)cc1 ?
RESULT: active

QUERY: Can you look up Activity outcome in HDAC1 enzymatic HDAC-Glo I/II assay on Recombinant human HDAC1 enzyme (Homo sapiens) for CCC(=O)CCCCC[C@@H]1NC(=O)[C@H]2CCCCN2C(=O)[C@H]([C@@H](C)CC)NC(=O)[C@H](Cc2cn(OC)c3ccccc23)NC1=O ?
RESULT: most potent

QUERY: Can you look up Activity outcome in HDAC1 enzymatic HDAC-Glo I/II assay on Recombinant human HDAC1 enzyme (Homo sapiens) for O=C(NO)c1ccc(CC(=O)N(CCO)c2ccccc2)cc1 ?
RESULT: weak activity

QUERY: Can you look up Activity outcome in HDAC1 enzymatic HDAC-Glo I/II assay on Recombinant human HDAC1 enzyme (Homo sapiens) for Cn1cc(CNCC2CCN(c3ncc(C(=O)NO)cn3)CC2)c2ccccc21 ?
RESULT: most potent

QUERY: Can you look up Activity outcome in HDAC1 enzymatic HDAC-Glo I/II assay on Recombinant human HDAC1 enzyme (Homo sapiens) for Nc1cc(F)ccc1NC(=O)c1ccc(CNC(=O)/C=C/c2cccnc2)cc1 [Chidamide] ?
RESULT: active

QUERY: Can you look up Activity outcome in HDAC1 enzymatic HDAC-Glo I/II assay on Recombinant human HDAC1 enzyme (Homo sapiens) for COc1cc(OC)c2c(=O)[nH]c(-c3cc(C)c(OCCO)c(C)c3)nc2c1 ?
RESULT: active

QUERY: Can you look up Activity outcome in HDAC1 enzymatic HDAC-Glo I/II assay on Recombinant human HDAC1 enzyme (Homo sapiens) for Cn1cc(C(=O)Cc2ccccc2)cc1/C=C/C(=O)NO ?
RESULT: active

###

TARGET ENTITY: HDAC1-NanoLuc fusion protein (Homo sapiens, UniProt Q13547)
Sequence (Q13547 whole entry, the tested form may be a part): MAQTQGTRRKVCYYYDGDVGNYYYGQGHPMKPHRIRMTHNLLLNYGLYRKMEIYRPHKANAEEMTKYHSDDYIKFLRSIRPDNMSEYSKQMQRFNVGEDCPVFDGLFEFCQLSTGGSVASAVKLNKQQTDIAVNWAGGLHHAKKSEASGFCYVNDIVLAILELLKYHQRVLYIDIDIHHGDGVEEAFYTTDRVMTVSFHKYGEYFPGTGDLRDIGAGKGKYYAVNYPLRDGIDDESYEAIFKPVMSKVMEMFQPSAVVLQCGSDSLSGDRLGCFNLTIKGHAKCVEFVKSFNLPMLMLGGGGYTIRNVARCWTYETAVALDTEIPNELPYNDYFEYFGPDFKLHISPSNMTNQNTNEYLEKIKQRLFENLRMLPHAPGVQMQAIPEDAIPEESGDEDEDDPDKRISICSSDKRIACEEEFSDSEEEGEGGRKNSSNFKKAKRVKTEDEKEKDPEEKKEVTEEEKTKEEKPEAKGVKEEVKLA
TEST: HDAC1 NanoBRET target engagement assay in HEK293T cells
Format: binding
TEST SETTINGS: HEK293T; 28.9 μM to 0.49 nM; active = CRC class 1 and 2 and AUC>100
MEASUREMENT TYPE: Activity outcome in NanoBRET (HDAC1 engagement, displacement of SAHA tracer)

INSERT INTO measurements (compound_string, recorded_value) VALUES
  ('CN(C)C(=O)COC(=O)Cc1ccc(OC(=O)c2ccc(NC(=N)N)cc2)cc1', 'weakly engage HDAC1'),
  ('O=C(Nc1cccc(Cl)c1)Nc1ncc(CCNc2ncnc3ccsc23)s1', 'engagement'),
  ('N=C(N)c1ccc2cc(OC(=O)c3ccc(N=C(N)N)cc3)ccc2c1', 'weakly engage HDAC1'),
  ('CC(C)C(=O)SCCCCCCC(=O)Nc1nc(-c2ccccc2)cs1', 'engagement');

Now for a further compound.
QUERY: # Activity outcome in NanoBRET (HDAC1 engagement, displacement of SAHA tracer) lookup, item CCCCN(Cc1ccc(C(=O)NO)cc1)C(=O)Nc1ccccc1
RESULT: engagement

###

TARGET ENTITY: Recombinant human HDAC1 enzyme (Homo sapiens, UniProt Q13547)
TEST: HDAC-Glo I/II enzymatic assay
Format: biochemical
MEASUREMENT TYPE: IC50 (µM)

Please review the entries below; each comes with its answer.
INSERT INTO results (compound, target_entity, recorded_value) VALUES
  ('O=C(Nc1ccc([N+](=O)[O-])cc1Cl)c1cc(Cl)ccc1O [Niclosamide]', 'Recombinant human HDAC1 enzyme (Homo sapiens, UniProt Q13547)', 2.8),
  ('Nc1ccc2c(c1)CN1C(=O)c3ccccc3C1=N2', 'Recombinant human HDAC1 enzyme (Homo sapiens, UniProt Q13547)', 2.1),
  ('O=S(=O)(O)c1ccc2[nH]c(-c3ccccc3)nc2c1', 'Recombinant human HDAC1 enzyme (Homo sapiens, UniProt Q13547)', 2.4),
  ('CNC(=O)c1ccccc1Sc1ccc2c(/C=C/c3ccccn3)n[nH]c2c1', 'Recombinant human HDAC1 enzyme (Homo sapiens, UniProt Q13547)', 3),
  ('Cc1oncc1C(=O)Nc1ccc(C(F)(F)F)cc1 [Leflunomide]', 'Recombinant human HDAC1 enzyme (Homo sapiens, UniProt Q13547)', 3),
  ('Oc1ccc(/C=C/c2cc(O)cc(O)c2)cc1', 'Recombinant human HDAC1 enzyme (Homo sapiens, UniProt Q13547)', 1.5),
  ('CC(=O)Oc1ccccc1C(=O)Nc1ncc([N+](=O)[O-])s1 [Nitazoxanide]', 'Recombinant human HDAC1 enzyme (Homo sapiens, UniProt Q13547)', 5.1),
  ('N=C(N)c1ccc2cc(OC(=O)c3ccc(N=C(N)N)cc3)ccc2c1', 'Recombinant human HDAC1 enzyme (Homo sapiens, UniProt Q13547)', 1.3),
  ('c1ccc2[nH]c(-c3cscn3)nc2c1', 'Recombinant human HDAC1 enzyme (Homo sapiens, UniProt Q13547)', 3.8),
  ('CCCSc1ccc2nc(NC(=O)OC)[nH]c2c1', 'Recombinant human HDAC1 enzyme (Homo sapiens, UniProt Q13547)', 7.7);

1 = O=C(Nc1ncc([N+](=O)[O-])s1)c1cccs1
2 = CN(C)C(=O)COC(=O)Cc1ccc(OC(=O)c2ccc(NC(=N)N)cc2)cc1
QUERY: // which entry has the larger IC50 value, 1 or 2 ? Return value: the label identifying the chosen record.
RESULT: 1
